TARGET SYSTEM: human NaV1.8 (hNaV1.8) ion channel (Homo sapiens, UniProt Q9Y5Y9)
Construct: expressed in transfected cells
Sequence (Q9Y5Y9 whole entry): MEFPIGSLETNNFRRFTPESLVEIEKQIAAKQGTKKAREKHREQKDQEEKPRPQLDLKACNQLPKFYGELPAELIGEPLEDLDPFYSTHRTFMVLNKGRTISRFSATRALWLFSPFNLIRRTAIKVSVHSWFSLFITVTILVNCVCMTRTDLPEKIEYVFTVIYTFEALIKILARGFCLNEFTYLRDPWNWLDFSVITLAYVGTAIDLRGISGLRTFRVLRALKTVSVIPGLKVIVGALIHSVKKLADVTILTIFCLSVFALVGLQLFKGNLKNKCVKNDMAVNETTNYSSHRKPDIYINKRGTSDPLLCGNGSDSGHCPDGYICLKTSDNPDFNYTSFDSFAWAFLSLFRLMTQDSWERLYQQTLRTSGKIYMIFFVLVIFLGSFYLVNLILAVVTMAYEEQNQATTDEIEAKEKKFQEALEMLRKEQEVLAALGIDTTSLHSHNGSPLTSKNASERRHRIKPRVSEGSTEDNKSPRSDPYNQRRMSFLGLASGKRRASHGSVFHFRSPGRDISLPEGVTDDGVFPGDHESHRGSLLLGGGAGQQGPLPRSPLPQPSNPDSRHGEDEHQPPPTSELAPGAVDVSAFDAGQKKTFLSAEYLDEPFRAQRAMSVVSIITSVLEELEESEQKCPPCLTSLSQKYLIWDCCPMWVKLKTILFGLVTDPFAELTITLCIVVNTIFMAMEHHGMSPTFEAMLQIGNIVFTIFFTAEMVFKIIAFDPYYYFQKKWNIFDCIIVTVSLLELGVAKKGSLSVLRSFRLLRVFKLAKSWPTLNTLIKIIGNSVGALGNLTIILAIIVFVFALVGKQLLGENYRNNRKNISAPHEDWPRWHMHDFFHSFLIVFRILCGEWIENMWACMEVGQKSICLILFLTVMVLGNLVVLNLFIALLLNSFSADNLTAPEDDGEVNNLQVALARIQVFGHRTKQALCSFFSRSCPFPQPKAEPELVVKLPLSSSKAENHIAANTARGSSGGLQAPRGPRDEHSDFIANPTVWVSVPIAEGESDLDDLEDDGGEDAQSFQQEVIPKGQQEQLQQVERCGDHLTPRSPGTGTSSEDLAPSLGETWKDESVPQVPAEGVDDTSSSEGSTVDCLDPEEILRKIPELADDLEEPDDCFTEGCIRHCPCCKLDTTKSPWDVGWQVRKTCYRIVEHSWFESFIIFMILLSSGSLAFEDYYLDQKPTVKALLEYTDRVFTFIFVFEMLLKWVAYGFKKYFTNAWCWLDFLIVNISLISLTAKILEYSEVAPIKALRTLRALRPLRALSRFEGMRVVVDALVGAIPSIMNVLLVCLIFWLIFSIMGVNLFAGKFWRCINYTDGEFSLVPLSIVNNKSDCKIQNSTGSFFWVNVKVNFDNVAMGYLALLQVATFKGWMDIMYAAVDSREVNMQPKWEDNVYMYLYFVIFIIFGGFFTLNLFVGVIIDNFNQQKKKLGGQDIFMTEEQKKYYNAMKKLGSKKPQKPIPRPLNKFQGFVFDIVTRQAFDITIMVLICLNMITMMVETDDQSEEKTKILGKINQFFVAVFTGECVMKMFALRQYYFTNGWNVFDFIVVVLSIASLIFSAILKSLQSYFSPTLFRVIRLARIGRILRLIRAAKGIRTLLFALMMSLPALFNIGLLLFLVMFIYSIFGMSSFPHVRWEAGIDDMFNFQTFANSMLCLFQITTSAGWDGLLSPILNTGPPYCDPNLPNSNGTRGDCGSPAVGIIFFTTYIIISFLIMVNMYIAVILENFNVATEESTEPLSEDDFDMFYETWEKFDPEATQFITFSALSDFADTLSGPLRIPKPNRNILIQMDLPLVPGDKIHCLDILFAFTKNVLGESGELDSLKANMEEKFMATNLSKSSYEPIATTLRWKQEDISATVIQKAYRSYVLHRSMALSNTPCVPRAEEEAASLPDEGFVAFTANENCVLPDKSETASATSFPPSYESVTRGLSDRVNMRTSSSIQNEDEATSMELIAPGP
TEST NAME: Inhibition of Human NaV1.8 stably expressed in SH-SY-5Y cells (membrane potential dye fluorescence assay)
Format: cell-based
STATED CONDITIONS: SH-SY-5Y cells stably expressing hNaV1.8; FLIPR membrane potential dye; 10 μM pyrethroid, 250 nM TTX; test range 100 μM-0.05 μM; read-out: hNav1.8 IC50
pIC50: −log10 of the molar value.
pIC50 of 6 or higher: true (1). Under 6: false (0).

molecule="CC(NC1CN(C(=O)Nc2ccc(C(F)(F)F)cc2)C1)c1ccc(F)cc1 (centres unmarked) [Example 56]" category_label="false (0)"
molecule="Cc1ccccc1C(C)NC1CN(C(=O)Nc2ccc(Oc3ccc(F)cc3)cc2)C1 (centres unmarked) [Example 108]" category_label="true (1)"
molecule="Cc1ccc(C(C)NC2CN(C(=O)Nc3ccc(Oc4ccccc4)cc3)C2)cc1 (centres unmarked) [Example 121]" category_label="true (1)"
molecule="Cc1ccccc1C(C)N(C)C1CN(C(=O)Nc2cccc(C(F)(F)F)c2)C1 (centres unmarked) [Example 96]" category_label="false (0)"
molecule="CC(c1ccc(F)cc1)N(C)C1CN(C(=O)Nc2cccc(C(F)(F)F)c2)C1 (centres unmarked) [Example 95]" category_label="false (0)"
molecule="CC(c1ccc(F)cc1)N(C)C1CN(C(=O)Nc2cc(F)cc(C(F)(F)F)c2)C1 (centres unmarked) [Example 82]" category_label="false (0)"
